- System: Candida albicans
- testProtocol: microbe, parasite or virus in culture
- condition: 17#, 64 h
- Description: Antifungal activity against fluconazole-resistant Candida albicans 17# assessed as inhibition of fungal growth incubated for 64 hrs by liquid medium dilution method
quantityKind: MIC50 (µg/mL)
Output spec: scalar in µg/mL, unitless text.

Observe how each entry below is paired with its result.
compound | MIC50 (µg/mL)
CC(=O)N1CCN(c2ccc(OCC3COC(Cn4ccnc4)(c4ccc(Cl)cc4Cl)O3)cc2)CC1 (stereo not given) [KETOCONAZOLE] | 2
Cc1c(CN2CCCC(C(=O)NCC(O)(Cn3cncn3)c3ccc(Cl)cc3)C2)cccc1-c1ccccc1 (stereo not given) | 2
Cc1c(CN2CCC(NCC(O)(Cn3cncn3)c3ccc(Cl)cc3)CC2)cccc1-c1ccccc1 (stereo not given) | 1

Now for a further compound.
Prompt: Which MIC50 is reported for this compound? Cc1c(CN2CCC(NCC(O)(Cn3ccnc3)c3ccc(Cl)cc3Cl)CC2)cccc1-c1ccccc1 (stereo not given)
Completion: 2
